- Test system: Echinochloa crus-galli (ECHCG)
- Test: Post-emergence glasshouse herbicide test, Echinochloa crus-galli
- Assay type: in vivo
- Reported Conditions: 1000 g/h, evaluated after 13 days, five point scale
Consider the following compounds and their measured percentage damage caused to the plant, POST Application ECHCG readings.
Result Type: percentage damage caused to the plant, POST Application ECHCG

In [3]: df
Out[3]:
                               smiles_input  experimental_value
0  Cc1cccc(-n2ncn3nc(C(=O)Nc4nnnn4C)c(=O)nc23)c1       5 (5=80-100%)
1  O=C1CCCC(=O)C1C(=O)c1nn2cnn(-c3ccc(F)cc3)c2nc1=O       5 (5=80-100%)
2  CCn1nnnc1NC(=O)c1nn2cnn(-c3ccc(C(F)(F)F)cc3)c2nc1=O        3 (3=40-59%)
3  COc1ccc(-n2ncn3nc(C(=O)Nc4nnnn4C)c(=O)nc23)cc1       5 (5=80-100%)
4  CCCn1nnnc1NC(=O)c1nn2cnn(-c3ccccc3)c2nc1=O       5 (5=80-100%)
5  CCn1nnnc1NC(=O)c1nn2cnn(-c3ccccc3)c2nc1=O       5 (5=80-100%)
